Target: SARM1 (50-724) (Homo sapiens)
Construct: Purified SARM1 (50-724) with a final concentration of 2 nM
Sequence (Q6SZW1 50-724): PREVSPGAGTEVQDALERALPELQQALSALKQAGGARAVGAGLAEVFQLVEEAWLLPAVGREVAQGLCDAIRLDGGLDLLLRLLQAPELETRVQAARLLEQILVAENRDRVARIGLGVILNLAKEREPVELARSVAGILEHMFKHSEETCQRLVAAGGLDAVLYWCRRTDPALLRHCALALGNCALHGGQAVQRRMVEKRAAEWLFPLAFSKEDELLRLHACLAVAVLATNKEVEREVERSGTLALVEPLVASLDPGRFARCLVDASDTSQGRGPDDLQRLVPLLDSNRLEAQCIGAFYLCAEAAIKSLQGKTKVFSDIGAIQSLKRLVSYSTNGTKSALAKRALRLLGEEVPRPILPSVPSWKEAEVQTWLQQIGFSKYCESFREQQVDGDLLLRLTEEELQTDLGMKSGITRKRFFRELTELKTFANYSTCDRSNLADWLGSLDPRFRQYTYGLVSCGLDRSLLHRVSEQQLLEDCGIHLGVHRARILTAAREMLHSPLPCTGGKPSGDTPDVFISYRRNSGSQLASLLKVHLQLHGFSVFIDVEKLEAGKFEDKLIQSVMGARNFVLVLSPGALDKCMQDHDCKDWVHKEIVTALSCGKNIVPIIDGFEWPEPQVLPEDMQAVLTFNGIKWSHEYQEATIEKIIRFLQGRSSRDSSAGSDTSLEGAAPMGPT
Assay: SARM1 (50-724) enzymatic assay (NMN-activated NAD+ hydrolysis, LC-MS/MS readout)
Details: purified SARM1 (50-724) 2 nM, 200 μM NMN activator, 100 μM NAD+ substrate, 1 h at room temperature, read-out: IC50 (SARM1 inhibitory activity)
pIC50: −log10 of the molar value.
Reported Endpoint: pIC50

Short answer for `Cc1ccc2[nH]c(C(=O)N(C)c3cccc(Cl)c3Cl)c(CO)c2c1` : pIC50 was ≥ 7.00

Short answer for `O=C(c1nc2cc(C(F)(F)F)ccc2[nH]1)N(CC(F)(F)CO)c1ccc(F)cc1Cl` : pIC50 was ≥ 7.00

Short answer for `CNC(=O)CN(C(=O)c1nc2cc(C(F)(F)F)ccc2[nH]1)c1cccc(Cl)c1Cl` : pIC50 was ≥ 7.00

Short answer for `Cc1c(-c2ccn[nH]2)ccc2[nH]c(C(=O)N(CC3COC3)c3cccc(Cl)c3Cl)nc12` : pIC50 was ≤ 6.00

Short answer for `COCCN(C(=O)c1nc2cc(C)ccc2[nH]1)C1CCCC1` : pIC50 was 6.30 to 7.00

Short answer for `Cc1ccc2[nH]c(C(=O)N(C)c3cccnc3)c(CO)c2c1` : pIC50 was ≤ 6.00

Short answer for `O=C(CN(C(=O)c1nc2cc(C(F)(F)F)ccc2[nH]1)c1cccc(Cl)c1Cl)N1CCC1` : pIC50 was ≥ 7.00

Short answer for `CN(C(=O)c1[nH]c2ccc(C(F)(F)F)cc2c1CO)C1CCCC1` : pIC50 was 6.30 to 7.00

====

Target: SARM1 (50-724) (Homo sapiens)
Construct: Purified SARM1 (50-724) with a final concentration of 2 nM
Assay: SARM1 (50-724) enzymatic assay (NMN-activated NAD+ hydrolysis, LC-MS/MS readout)
Conditions: purified SARM1 (50-724) 2 nM, 200 μM NMN activator, 100 μM NAD+ substrate, 1 h at room temperature, read-out: IC50 (SARM1 inhibitory activity)
Reported Endpoint: IC50

Short answer for `COC1CN(CCN(C(=O)c2nc3cc(C(F)(F)F)ccc3[nH]2)c2cccc(Cl)c2Cl)C1` : IC50 was ≤ 100 nM

Short answer for `Cc1cc(-c2ccc3[nH]c(C(=O)N(CC4COC4)c4cccc(Cl)c4Cl)nc3c2)[nH]n1` : IC50 was 101 to 500 nM

Short answer for `Cc1cn[nH]c1-c1ccc2[nH]c(C(=O)N(CC3COC3)c3cccc(Cl)c3Cl)nc2c1` : IC50 was ≥ 1000 nM

Short answer for `CN(C(=O)c1nc2cc(C(F)(F)F)ccc2[nH]1)c1cc(F)cc(Cl)c1Cl` : IC50 was ≤ 100 nM

Short answer for `O=C(c1nc2cc(C(F)(F)F)cc(F)c2[nH]1)N(CC(F)(F)CO)c1cccc(F)c1Cl` : IC50 was ≤ 100 nM

Short answer for `O=C(c1nc2cc(-c3ccn[nH]3)ccc2[nH]1)N(CC1COC1)c1cccc(Cl)c1Cl` : IC50 was 101 to 500 nM

Short answer for `Cc1ccc2[nH]c(C(=O)N(C)c3cccc(C#N)c3)c(CO)c2c1` : IC50 was ≥ 1000 nM

Short answer for `CN(C(=O)c1nc2c(C3CC3)cccc2[nH]1)C1CCCC1` : IC50 was 501 to 1000 nM

Short answer for `CC1(c2ccc3[nH]c(C(=O)N(CC(F)(F)CO)c4cccc(F)c4Cl)nc3c2)COC1` : IC50 was ≤ 100 nM

Short answer for `O=C(c1nc2cc(C(F)(F)F)ccc2[nH]1)N(CC1(F)COC1)c1cccc(F)c1Cl` : IC50 was ≤ 100 nM

Short answer for `Cc1ccc2[nH]c(C(=O)N(CCO)c3cccc(Cl)c3Cl)nc2c1Br` : IC50 was ≤ 100 nM

Short answer for CC(O)CN(C(=O)c1nc2cc(C(F)(F)F)ccc2[nH]1)c1cccc(Cl)c1Cl (stereo not shown) : IC50 was ≤ 100 nM

Short answer for `O=C(c1nc2cc(C(F)(F)F)ccc2[nH]1)N(CC1CS(=O)(=O)C1)c1cccc(Cl)c1Cl` : IC50 was ≤ 100 nM

Short answer for `Cc1ccc2[nH]c(C(=O)N(C)C3CCCC3)c(CNc3cc(C)[nH]n3)c2c1` : IC50 was 101 to 500 nM

Short answer for CN=S(C)(=O)CCCN(C(=O)c1nc2cc(C(F)(F)F)ccc2[nH]1)c1cccc(F)c1Cl (stereo not shown) : IC50 was ≤ 100 nM

Short answer for Cc1ccc2c(c1)c(CO)c(C(=O)N(C)C1C(C)CCC1C)n2C (stereo not shown) : IC50 was ≥ 1000 nM

====

Biological target: SARM1 (50-724) (Homo sapiens)
Construct: Purified SARM1 (50-724) with a final concentration of 2 nM
Assay: SARM1 (50-724) enzymatic assay (NMN-activated NAD+ hydrolysis, LC-MS/MS readout)
Conditions: purified SARM1 (50-724) 2 nM, 200 μM NMN activator, 100 μM NAD+ substrate, 1 h at room temperature, read-out: IC50 (SARM1 inhibitory activity)
Reported Endpoint: IC50

Short answer for `O=C(c1nc2cc(C(F)(F)F)ccc2[nH]1)N(CCOC1COC1)c1cccc(Cl)c1Cl` : IC50 was ≤ 100 nM

Short answer for `O=C(c1nc2cc(C(F)(F)F)ccc2[nH]1)N(CC(F)(F)CO)c1ccc(F)c(F)c1Cl` : IC50 was ≤ 100 nM

Short answer for `Cc1ccc2[nH]c(C(=O)N(CCO)C3CCCC3)nc2c1` : IC50 was 101 to 500 nM

Short answer for `O=C(c1nc2cc(C3CC3)ccc2[nH]1)N(CC(F)(F)CO)c1cccc(F)c1Cl` : IC50 was ≤ 100 nM

====

Target: SARM1 (50-724) (Homo sapiens, UniProt Q6SZW1)
Construct: Purified SARM1 (50-724) with a final concentration of 2 nM
Assay: SARM1 (50-724) enzymatic assay (NMN-activated NAD+ hydrolysis, LC-MS/MS readout)
Conditions: purified SARM1 (50-724) 2 nM, 200 μM NMN activator, 100 μM NAD+ substrate, 1 h at room temperature, read-out: IC50 (SARM1 inhibitory activity)
pIC50: −log10 of the molar value.
Hi there, I'd appreciate the recorded pIC50 for every entry that follows.

Form field, pIC50 with SARM1 (50-724) (Homo sapiens, UniProt Q6SZW1), item CN(C(=O)c1nc2cc(C(F)(F)F)ccc2[nH]1)C1CCCC1 [Compound 48] : ≥ 7.00

Form field, pIC50 with SARM1 (50-724) (Homo sapiens, UniProt Q6SZW1), item O=C(c1nc2cc(Cl)cc(Cl)c2[nH]1)N(CC(F)(F)CO)c1cccc(F)c1Cl [Compound 235] : 6.30 to 7.00

Form field, pIC50 with SARM1 (50-724) (Homo sapiens, UniProt Q6SZW1), item Cc1ccc2[nH]c(C(=O)N(C)C3CCCC3)c(CNc3ccccn3)c2c1 [Compound 82] : 6.30 to 7.00

Form field, pIC50 with SARM1 (50-724) (Homo sapiens, UniProt Q6SZW1), item CS(=O)(=O)c1ccc2[nH]c(C(=O)N(CCO)c3cccc(Cl)c3Cl)nc2c1 [Compound 108] : 6.30 to 7.00

Form field, pIC50 with SARM1 (50-724) (Homo sapiens, UniProt Q6SZW1), item Cc1ccc2[nH]c(C(=O)N(C)C3CCCCC3)nc2c1 [Compound 47] : 6.30 to 7.00

Form field, pIC50 with SARM1 (50-724) (Homo sapiens, UniProt Q6SZW1), item CC(C)(C)c1ccc2[nH]c(C(=O)N(CC3(F)COC3)c3[nH]c(=O)ccc3Cl)nc2c1 [Compound 221] : ≥ 7.00

Form field, pIC50 with SARM1 (50-724) (Homo sapiens, UniProt Q6SZW1), item Cc1ccc2[nH]c(C(=O)N(C)c3cccc(Cl)c3Cl)c(CNc3nccs3)c2c1 [Compound 79] : ≥ 7.00

Form field, pIC50 with SARM1 (50-724) (Homo sapiens, UniProt Q6SZW1), item Cc1csc(-c2ccc3[nH]c(C(=O)N(CCO)c4cccc(Cl)c4Cl)nc3c2)n1 [Compound 153] : 6.30 to 7.00

Form field, pIC50 with SARM1 (50-724) (Homo sapiens, UniProt Q6SZW1), item O=C(c1nc2cc(C(F)(F)F)ccc2[nH]1)N(CC1(CO)COC1)c1cccc(Cl)c1Cl [Compound 174] : ≥ 7.00

Form field, pIC50 with SARM1 (50-724) (Homo sapiens, UniProt Q6SZW1), item C[S+]([O-])CCCN(C(=O)c1nc2cc(C(F)(F)F)ccc2[nH]1)c1cccc(F)c1Cl (racemic) [Compound 230] : ≥ 7.00

Form field, pIC50 with SARM1 (50-724) (Homo sapiens, UniProt Q6SZW1), item O=C(c1nc2cc(C(F)(F)F)ccc2[nH]1)N(CC(F)(F)CO)c1cccc(F)c1Cl [Compound 185] : ≥ 7.00

Form field, pIC50 with SARM1 (50-724) (Homo sapiens, UniProt Q6SZW1), item Cn1nc(N(CCO)C(=O)c2nc3cc(C(F)(F)F)ccc3[nH]2)c(Cl)c1Cl [Compound 110] : ≥ 7.00

Form field, pIC50 with SARM1 (50-724) (Homo sapiens, UniProt Q6SZW1), item Cc1ccc(Cl)c(N(C)C(=O)c2nc3cc(C(F)(F)F)ccc3[nH]2)c1Cl [Compound 152] : ≥ 7.00

Form field, pIC50 with SARM1 (50-724) (Homo sapiens, UniProt Q6SZW1), item O=C(c1nc2cc(C(F)(F)F)ccc2[nH]1)N(CC1(O)CC1)c1cccc(Cl)c1Cl [Compound 197] : ≥ 7.00

Form field, pIC50 with SARM1 (50-724) (Homo sapiens, UniProt Q6SZW1), item O=C(c1nc2cc(C3CCCO3)ccc2[nH]1)N(CCO)c1cccc(Cl)c1Cl (racemic) [Compound 196] : ≥ 7.00

Form field, pIC50 with SARM1 (50-724) (Homo sapiens, UniProt Q6SZW1), item CN(C(=O)c1[nH]ccc1CO)C1CCCC1 [Compound 45] : ≤ 6.00

Form field, pIC50 with SARM1 (50-724) (Homo sapiens, UniProt Q6SZW1), item O=C(c1nc2cc(C(F)(F)F)ccc2[nH]1)N(CC1COC1)c1cccc(Cl)c1Cl [Compound 105] : ≥ 7.00
